Target: T1, Recombinant human PD-L1 (Sino Biologicals or R&D systems), biotinylated (human, UniProt Q9NZQ7 19-238, limits assumed, biotinylated with EZ-Link Sulfo-NHS-LC-LC-Biotin)
T1 construct: captured on a streptavidin CM5 chip for SPR; also called human PD-L1 protein; Biotinylated PD-L1
T1 sequence (Q9NZQ7 19-238 limits assumed): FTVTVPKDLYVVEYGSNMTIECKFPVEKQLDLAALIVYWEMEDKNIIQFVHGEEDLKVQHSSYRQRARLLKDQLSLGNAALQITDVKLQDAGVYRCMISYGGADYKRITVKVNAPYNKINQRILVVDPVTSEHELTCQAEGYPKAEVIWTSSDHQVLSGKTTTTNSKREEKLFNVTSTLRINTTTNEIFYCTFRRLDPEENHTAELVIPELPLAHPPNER
Experiment: SPR (Biacore), biotinylated PD-L1 on streptavidin chip
Procedure: Biacore experiments were performed to determine kₐ) (M⁻¹s⁻¹), kd (s⁻¹), KD (nM) values of monomeric peptides binding to human PD-L1 protein. […] The protein was desalted to remove uncoupled biotin using spin columns into PBS. For analysis of binding, a Biacore 3000 instrument was used utilizing a CM5 sensor chip (GE Healthcare). Streptavidin was immobilized on the chip using standard amine-coupling chemistry at 25° C. with HBS-N (10 mM HEPES, 0.15 M NaCl, pH 7.4) as the running buffer. […]
*1 amine or outer side, *2 acyl side, *3 side chain or, on linkers, in order; H or OH if unused. Bridges are numbered along the chain shown (N, C = ends). Where no end group is shown, it is not given here. [ ]: non-standard residue; d: D form. TATA = O=C(CC[*:1])N1CN(C(=O)CC[*:2])CN(C(=O)CC[*:3])C1; Aad = N[C@@H](CCCC(=O)O)C(=O)O; Chg = N[C@H](C(=O)O)C1CCCCC1; Nle = CCCC[C@H](N)C(=O)O; Aib = CC(C)(N)C(=O)O
Checkbox rule: Kd lower than 30 nM = Satisfied; Kd not lower than 30 nM = Not satisfied.

Take a look at these entries with their results.
> print(dat)
                                     binder  class.assignment
1  SDKCSAGWLTMCQ[Nle]LHLCA (linker 4-12-18 via TATA) [BCY10068]     Not satisfied
2  SDKCS[Nle]GWLTMCQKLHLCA (linker 4-12-18 via TATA) [BCY10062]         Satisfied
3  SDKCSAGWLTMCQKL[Aib]LCA (linker 4-12-18 via TATA) [BCY10073]         Satisfied
4  SDKCSAGWLTMC[Chg]KLHLCA (linker 4-12-18 via TATA) [BCY10066]         Satisfied

Query :: Determine if Ac-SEKCS[Aad]GWLTMCLKLHLC (linker 4-12-18 via TATA) [BCY11825] shows Kd strictly lower than 30 nM.
Result :: Satisfied

Reference for the values: patent US20210101932A1
